- assayed.system: GLP-1R (Homo sapiens, UniProt P43220)
- Sequence (P43220 24-463): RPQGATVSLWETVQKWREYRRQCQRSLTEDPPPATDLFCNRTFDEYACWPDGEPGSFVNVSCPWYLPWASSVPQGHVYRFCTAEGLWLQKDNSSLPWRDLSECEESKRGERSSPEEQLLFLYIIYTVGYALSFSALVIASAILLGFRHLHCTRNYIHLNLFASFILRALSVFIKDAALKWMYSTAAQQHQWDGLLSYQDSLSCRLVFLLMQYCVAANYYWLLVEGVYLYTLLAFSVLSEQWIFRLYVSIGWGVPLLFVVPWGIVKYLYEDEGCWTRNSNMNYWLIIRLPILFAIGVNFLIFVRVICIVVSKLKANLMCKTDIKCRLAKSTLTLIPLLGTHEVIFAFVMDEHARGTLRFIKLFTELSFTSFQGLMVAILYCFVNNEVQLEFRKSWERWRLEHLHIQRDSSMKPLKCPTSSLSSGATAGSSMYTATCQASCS
- assay: GLP-1R activation cAMP assay (Assay 1 or Assay 2)
- conditions.used: cAMP increase in CHO cells stably expressing GLP-1R; compounds run on one of the two cAMP assays
Bucketed by reported EC50, buckets being low interval: < 300 pM; middle interval: ≥ 300 pM and < 3000 pM; high interval: ≥ 3000 pM

The examples below pair each entry with its known result.
{"compound": "O=C(O)c1ccc2nc(Cc3cc(F)c(-c4cccc(OCc5nnc(-c6cnn(C(F)F)c6)s5)n4)cc3F)n(C[C@@H]3CCO3)c2c1 [Example 92]", "label": "low interval"}
{"compound": "Cn1cc(C#Cc2cnc(COc3cccc(-c4cc(F)c(Cc5nc6c(F)cc(C(=O)O)cc6n5C[C@@H]5CCO5)cc4F)n3)c(F)c2)cn1 [Example 392]", "label": "low interval"}
{"compound": "COc1cc(C(=O)NC2(C#N)CC2)ncc1COc1cccc(-c2cc(F)c(Cc3nc4ccc(C(=O)O)cc4n3C[C@@H]3CCO3)cc2F)n1 [Example 41]", "label": "low interval"}

Ask: Which class holds CCOc1nnc(COc2cc(-c3cc(F)c(Cc4nc5ccc(C(=O)O)cc5n4[C@@H]4COCC4(C)C)cc3C)ccc2F)s1 [Example 260] ?
Result: low interval

Ask: Which class holds O=C(O)c1ccc2nc(Cc3cc(F)c(-c4cccc(OCc5nnc(C6CC6)o5)n4)cc3F)n(C[C@@H]3CCO3)c2c1 [Example 67] ?
Result: high interval

Ask: Which class holds N#Cc1ccc(COc2cccc(-c3cc(F)c(Cc4nc5ccc(C(=O)O)cc5n4C[C@@H]4CCO4)cc3F)n2)o1 [Example 14] ?
Result: high interval

Ask: Which class holds N#Cc1cnc(COc2cccc(-c3cc(F)c(Cc4nc5c(F)cc(C(=O)O)cc5n4C[C@@H]4CCO4)cc3F)n2)s1 [Example 372] ?
Result: low interval

Ask: Which class holds CCOc1nc(Cl)c(COc2cccc(-c3cc(F)c(Cc4nc5ccc(C(=O)O)cc5n4C[C@@H]4CCO4)cc3F)n2)s1 [Example 353] ?
Result: low interval

Ask: Which class holds CNC(=O)c1cc(Cl)c(COc2cccc(-c3cc(F)c(Cc4nc5ccc(C(=O)O)cc5n4CC4(CF)CC4)c(F)c3F)n2)cn1 [Example 450] ?
Result: low interval

Ask: Which class holds Cc1cnc(COc2cccc(-c3cc(F)c(Cc4nc5ccc(C(=O)O)cc5n4C[C@@H]4CCO4)cc3F)n2)s1 [Example 327] ?
Result: middle interval

Ask: Which class holds COCCn1c(Cc2cc(F)c(-c3cccc(OCc4ccc(C(N)=O)nc4)n3)cc2F)nc2ccc(C(=O)O)cc21 [Example 174] ?
Result: high interval

Ask: Which class holds CC(F)(F)c1cnc(COc2nc(-c3cc(F)c(Cc4nc5c(F)cc(C(=O)O)cc5n4C[C@@H]4CCO4)cc3F)ccc2F)s1 [Example 309] ?
Result: low interval

Ask: Which class holds Cc1cc(Cc2nc3ccc(C(=O)O)cc3n2[C@@H]2COCC2(C)C)c(Cl)cc1-c1cccc(OCc2ncc(C(C)(F)F)s2)n1 [Example 428] ?
Result: high interval

Ask: Which class holds COCCn1c(Cc2cc(F)c(-c3cccc(OCc4ccc(-c5cnn(Cc6cccnc6)c5)cc4F)n3)cc2F)nc2ccc(C(=O)O)cc21 [Example 237] ?
Result: high interval

Ask: Which class holds Cn1cc(-c2cnc(COc3cccc(-c4cc(F)c(Cc5nc6ccc(C(=O)O)cc6n5C[C@@H]5CCO5)cc4F)n3)s2)nn1 [Example 89] ?
Result: middle interval

Ask: Which class holds Cn1ccnc1C#Cc1ccc(COc2cccc(-c3cc(F)c(Cc4nc5ccc(C(=O)O)cc5n4C[C@@H]4CCO4)cc3F)n2)c(F)c1 [Example 148] ?
Result: middle interval

Ask: Which class holds COCc1noc(COc2cccc(-c3cc(F)c(Cc4nc5ccc(C(=O)O)cc5n4C[C@@H]4CCO4)cc3F)n2)n1 [Example 16] ?
Result: high interval

Ask: Which class holds Cc1cc(COc2cccc(-c3cc(F)c(Cc4nc5ccc(C(=O)O)cc5n4C[C@@H]4CCO4)cc3F)n2)nn1C [Example 72] ?
Result: middle interval

----------
- assayed.system: GLP-1R (Homo sapiens, UniProt P43220)
- assay: GLP-1R activation cAMP assay (Assay 1 or Assay 2)
- conditions.used: cAMP increase in CHO cells stably expressing GLP-1R; compounds run on one of the two cAMP assays
pEC50: −log10 of the molar value.
Decision: pEC50 >= 9 yields criterion met, all other cases yield criterion not met.

{"cpd.smiles": "COc1cc(COc2cccc(-c3cc(F)c(Cc4nc5ccc(C(=O)O)cc5n4C[C@@H]4CCO4)cc3F)n2)nn1C", "label": "criterion not met"}
{"cpd.smiles": "COc1nnc(COc2cccc(-c3cc(F)c(Cc4nc5c(F)cc(C(=O)O)cc5n4CC4(CF)CC4)c(F)c3F)n2)s1", "label": "criterion met"}
{"cpd.smiles": "Cc1nc(COc2cccc(-c3cc(F)c(Cc4nc5ccc(C(=O)O)cc5n4C[C@@H]4CCO4)cc3F)n2)cn1C(F)F", "label": "criterion not met"}
{"cpd.smiles": "N#Cc1ncc(COc2cccc(-c3cc(F)c(Cc4nc5ccc(C(=O)O)cc5n4C[C@@H]4CCO4)cc3F)n2)o1", "label": "criterion not met"}
{"cpd.smiles": "COc1nnc(COc2cccc(-c3cc(F)c(Cc4nc5ccc(C(=O)O)cc5n4CC4(CF)CC4)cc3F)n2)s1", "label": "criterion not met"}

Ask: Check this molecule for pEC50 at or above 9: O=C(O)c1cc(F)c2nc(Cc3cc(F)c(-c4cccc(OCc5ncc(C#Cc6cncs6)cc5F)n4)cc3F)n(C[C@@H]3CCO3)c2c1
Result: criterion met

Ask: Check this molecule for pEC50 at or above 9: NC(=O)c1ccc(COc2nccc(-c3cc(F)c(Cc4nc5ccc(C(=O)O)cc5n4C[C@@H]4CCO4)cc3F)n2)cn1
Result: criterion not met

Ask: Check this molecule for pEC50 at or above 9: NC(=O)c1csc(COc2cccc(-c3cc(F)c(Cc4nc5ccc(C(=O)O)cc5n4C[C@@H]4CCO4)cc3F)n2)c1
Result: criterion not met

Ask: Check this molecule for pEC50 at or above 9: O=C(O)c1ccc2nc(Cc3cc(F)c(-c4cccc(OCc5cnc(C(=O)NC6CCCC6)cc5F)n4)cc3F)n(C[C@@H]3CCO3)c2c1
Result: criterion not met

----------
- assayed.system: UniProt P43220
- assay: GLP-1R activation cAMP assay (Assay 1 or Assay 2)
- conditions.used: cAMP increase in CHO cells stably expressing GLP-1R; compounds run on one of the two cAMP assays
endpoint: EC50 (nM)
Report only the number, with the unit nM understood.

Ask: Consider the molecule O=C(O)c1cc(F)c2nc(Cc3ccc(-c4cccc(OCc5cc6n(n5)CCC6)n4)c(F)c3)n(C[C@@H]3CCO3)c2c1 [Example 69] and give its measured EC50.
Result: 2.59

Ask: Consider the molecule O=C(O)c1ccc2nc(Cc3cc(F)c(-c4cccc(OCc5cc(C(F)(F)F)on5)n4)cc3F)n(C[C@@H]3CCO3)c2c1 [Example 24] and give its measured EC50.
Result: 1.54

Ask: Consider the molecule COc1nnc(COc2cccc(-c3cc(Cl)c(Cc4nc5ccc(C(=O)O)cc5n4[C@@H]4COCC4(C)C)cc3F)n2)s1 [Example 434] and give its measured EC50.
Result: 0.087

Ask: Consider the molecule Cn1ccc(COc2cccc(-c3cc(F)c(Cc4nc5ccc(C(=O)O)cc5n4C[C@@H]4CCO4)cc3F)n2)n1 [Example 124] and give its measured EC50.
Result: 0.81

Ask: Consider the molecule COCCn1c(Cc2cc(F)c(-c3cccc(OCc4ccc(C#CC5CN(C(C)=O)C5)cc4F)n3)cc2F)nc2ccc(C(=O)O)cc21 [Example 251] and give its measured EC50.
Result: 0.89

Ask: Consider the molecule O=C(O)c1ccc2nc(Cc3cc(F)c(-c4cccc(OCc5ncc(C#Cc6cnn(C7CC7)c6)s5)n4)cc3F)n(C[C@@H]3CCO3)c2c1 [Example 118] and give its measured EC50.
Result: 0.44

----------
- assayed.system: GLP-1R (Homo sapiens)
- assay: GLP-1R activation cAMP assay (Assay 1 or Assay 2)
- conditions.used: cAMP increase in CHO cells stably expressing GLP-1R; compounds run on one of the two cAMP assays
# Lookup of reported pEC50 keyed by entry
The quantity pEC50 is defined as the negative base-10 logarithm of the molar concentration.

{"cpd.smiles": "Cn1nc(COc2cccc(-c3cc(F)c(Cc4nc5ccc(C(=O)O)cc5n4C[C@@H]4CCO4)cc3F)n2)cc1C(F)F", "pEC50": 9.08}
{"cpd.smiles": "Cn1nc(COc2cccc(-c3cc(F)c(Cc4nc5ccc(C(=O)O)cc5n4C[C@@H]4CCO4)cc3F)n2)cc1C(N)=O", "pEC50": 7.36}
{"cpd.smiles": "O=C(O)c1ccc2nc(Cc3cc(F)c(-c4cccc(OCc5ccn(C6COC6)n5)n4)cc3F)n(C[C@@H]3CCO3)c2c1", "pEC50": 8.12}
{"cpd.smiles": "COCCn1c(Cc2cc(F)c(-c3cccc(OCc4cnn(-c5ccccc5)c4)n3)cc2F)nc2ccc(C(=O)O)cc21", "pEC50": 6.14}

Ask: Consider the compound COc1nnc(COc2nc(-c3cc(F)c(Cc4nc5c(F)cc(C(=O)O)cc5n4[C@@H]4COCC4(C)C)cc3F)ccc2F)s1 and give its measured pEC50.
Result: 10.57

Ask: Consider the compound NC(=O)c1cccc(COc2cccc(-c3cc(F)c(Cc4nc5ccc(C(=O)O)cc5n4C[C@@H]4CCO4)cc3F)n2)n1 and give its measured pEC50.
Result: 9.32

Ask: Consider the compound CCOc1nnc(COc2nc(-c3cc(F)c(Cc4nc5c(F)cc(C(=O)O)cc5n4[C@@H]4COCC4(C)C)cc3F)ccc2F)s1 and give its measured pEC50.
Result: 10.64
